measureName: pKi
Friendly reminder that pKi comes from taking -log10 of the concentration in mol/L.

INPUT: What reported pKi corresponds to Cc1ccc(S(=O)(=O)N2CC=C(c3ccc4[nH]cc(CCN5CCCC5)c4c3)CC2)cc1 on 5-hydroxytryptamine receptor 1B (Homo sapiens)?
OUTPUT: 6.85

INPUT: What reported pKi corresponds to O=S(=O)(c1ccc(Cl)cc1)N1CC=C(c2ccc3[nH]cc(CCN4CCCC4)c3c2)CC1 on 5-hydroxytryptamine receptor 1B (Homo sapiens)?
OUTPUT: 6.96

INPUT: What reported pKi corresponds to C1=C(c2ccc3[nH]cc(CCN4CCCC4)c3c2)CCNC1 on 5-hydroxytryptamine receptor 1B (Homo sapiens)?
OUTPUT: 6.12

INPUT: What reported pKi corresponds to O=S(=O)(c1ccccc1)N1CC=C(c2ccc3[nH]cc(CCN4CCCC4)c3c2)CC1 on 5-hydroxytryptamine receptor 1B (Homo sapiens)?
OUTPUT: 6.36

Recorded values, source ChEMBL document CHEMBL1148271.
